Catalogue of growth inhibition readings, one per entry.
assay: antimalarial activity against Dd2 strain (AID 2302);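 note: 0% = DMSO untreated growth and 100% = chloroquine plus artemisinin killed control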; conditions: P. falciparum Dd2 in RBCs, LDH growth readout, 72 h; at 2 µM; active compounds read high

MOLECULE	growth inhibition [%]
O=C1OC2(CCN(Cc3cccc(-c4ncc[nH]4)c3)CC2)CN1CCNCc1ccccc1	-1
CN(CCNCc1ccc(-c2cccc(-c3nc4ccccc4[nH]3)c2)cc1)S(C)(=O)=O	29
O=C(C=Cc1ccc(Cl)c(Cl)c1)NCCCCCN1CCC(CCNS(=O)(=O)c2ccc(F)cc2)CC1	-5
CS(=O)(=O)CCNCc1cc(-c2cc3ncnc(Nc4ccc(OCc5cccc(F)c5)c(Cl)c4)c3s2)cs1	48
O=C(/C=C/c1ccc(Cl)c(Cl)c1)NCCCN1CCC(c2c[nH]c3ccccc23)CC1	5
COc1ccccc1/C=C/C(=O)N(C)C1CCN(CCCCCNC(=O)/C=C/c2ccc(Cl)c(Cl)c2)CC1	63
C=CCn1c(SCC(=O)Nc2cc(Cl)ccc2Cl)nc2sc(C)cc2c1=O	96
Cc1cccc2[nH]c(-c3ccc(-c4ccc(CN5CCCCC5)cc4)cc3)nc12	99
CC1(CCc2ccccc2)N=C(Nc2ccc(Cl)cc2)N=C(N)C1c1ccc(Cl)c(Cl)c1 (centres undefined)	98
N=C(N)c1cccc(OCCCOc2cccc(NC(=O)Nc3ccc([N+](=O)[O-])cc3)c2)c1	22
N#Cc1cccc(NC(=O)C2=C(CCc3ccc4c(c3)OCO4)NC(=O)NC2c2cccc(C#N)c2)c1 (centres undefined)	47
OCCN1CCN(Cc2ccc(-c3cccc(-c4nc5ccccc5[nH]4)c3)cc2)CC1	16
Cc1cc(OCCCN2CCC(NS(=O)(=O)c3cccc(Br)c3)C2)c2ccccc2n1 (centres undefined)	40
CCCCCCn1c2c(c(=N)c3c1CCC3)CCCC2	76
CC(C)c1sc(N2CCN(C)CC2)nc1C(=O)NCCc1ccc(Cl)c(Cl)c1	79
Cc1cc(N2CCCC2)nc(Nc2ccc(NC(=O)c3ccccc3F)cc2)n1	44
Fc1cccc(COc2ccc(Nc3ncnc4sc(C#CCNC5CCCC5)cc34)cc2Cl)c1	78
COC(=O)c1cccc(N2CCN(CCCNC(=O)/C(=C/C=C/c3cc4cc(Cl)c(Cl)cc4[nH]3)OC)CC2)c1	59
O=C(/C=C/c1ccc(Cl)c(Cl)c1)NCCCCCN1CCC(CCNC(=O)Cc2ccc(Cl)cc2)CC1	0
